Where do the numbers come from? From patent US12201619B2.

Tgt: human M1 mAChR (Homo sapiens, UniProt P11229)
Sequence (P11229 whole entry): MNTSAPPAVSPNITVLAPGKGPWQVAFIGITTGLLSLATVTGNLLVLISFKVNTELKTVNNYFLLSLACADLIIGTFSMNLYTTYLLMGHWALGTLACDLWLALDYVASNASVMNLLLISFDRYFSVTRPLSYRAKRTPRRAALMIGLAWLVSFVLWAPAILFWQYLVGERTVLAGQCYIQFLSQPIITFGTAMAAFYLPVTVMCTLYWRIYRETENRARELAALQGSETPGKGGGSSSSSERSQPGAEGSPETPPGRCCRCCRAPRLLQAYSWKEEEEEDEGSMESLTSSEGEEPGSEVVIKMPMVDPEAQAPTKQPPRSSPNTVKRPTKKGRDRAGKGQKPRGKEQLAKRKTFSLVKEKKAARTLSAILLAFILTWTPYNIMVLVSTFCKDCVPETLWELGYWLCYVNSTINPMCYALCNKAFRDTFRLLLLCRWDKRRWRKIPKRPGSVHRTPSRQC
Experimental Details: Phosphoinositide (PI) hydrolysis in CHOM1 cells
Assay type: cell-based
Design: expressed in transfected cells; host or cells: CHO (Chinese Hamster Ovary) cells, CHOM1, kept under G418
Condition Label: CHOM1 cells

{"columns": ["Molecule", "Unit String", "EC50"],
 "data": [
  ["CC[C@@H]1SC2(CCN(C)CC2)NC1=O [NSC001]", "µM", 19]
]}

----------
Reported values of EC50 for individual entries
Tgt: human M1 mAChR (Homo sapiens)
Experimental Details: cell-based

{"columns": ["Compound", "EC50, nM"],
 "data": [
  ["CC[C@@H]1SC2(CCN(C)CC2)NC1=O [NSC001]", 1840],
  ["C[C@@H]1O[C@@]2(CS1)CN1CCC2CC1.Cl (racemic) [AF102B, hydrochloride, reference compound]", 1680]
]}
